# assayExplanation: Regional brain distribution in rats after iv injection
# Assay type: in vivo, Male Sprague-Dawley rats
# experimentalContext: rat, cerebellum; 2 min, iv, rats (Table III); read-out: Regional distribution, cerebellum
valueKind: tissue uptake at 2 min (%ID/g)
API: value field is a number in %ID/g; no unit string.

Identify tissue uptake at 2 min associated with the molecule COc1ccccc1N1CCN(CCN(C(=O)c2ccc([123I])cc2)c2ccccn2)CC1 [[^123 I] 1a]
0.64

---

# assayExplanation: Regional brain distribution in rats after iv injection
# Format: in vivo, Male Sprague-Dawley rats
# experimentalContext: rat, hypothalamus; 2 min, iv, rats (Table IV); read-out: Regional distribution, hypothalamus
valueKind: tissue uptake at 2 min (%ID/g)
Report the value in %ID/g with no unit label.

Tell me measured tissue uptake at 2 min for COc1ccccc1N1CCN(CCN(C(=O)c2cccc([123I])c2)c2ccccn2)CC1 [[^123 I] 1b] please.
0.5

---

# assayExplanation: Regional brain distribution in rats after iv injection
# Format: in vivo, Male Sprague-Dawley rats
# experimentalContext: rat, cortex; 2 min, iv, rats (Table III); read-out: Regional distribution, cortex
valueKind: tissue uptake at 2 min (%ID/g)
All answers are understood in %ID/g, so give the number only.

Complete the entry with tissue uptake at 2 min for COc1ccccc1N1CCN(CCN(C(=O)c2ccc([123I])cc2)c2ccccn2)CC1 [[^123 I] 1a]
0.91

---

# assayExplanation: Regional brain distribution in rats after iv injection
# Type: in vivo, Male Sprague-Dawley rats
# experimentalContext: rat, hypothalamus; 60 min, iv, rats (Table III); read-out: Regional distribution, hypothalamus
valueKind: tissue uptake at 1 h
Note to self: number, then unit, no commentary.

Return the recorded tissue uptake at 1 h value; entry: COc1ccccc1N1CCN(CCN(C(=O)c2ccc([123I])cc2)c2ccccn2)CC1 [[^123 I] 1a]
0.051 %ID/g

---

# subjectOfTest: 5-HT1A receptor (rat hippocampal homogenates) (Rattus norvegicus, UniProt P19327)
# Construct: in rat hippocampal membrane preparations; from tissue; host or cells: rat hippocampus (membrane preparations / tissue homogenates)
# Sequence (P19327 whole entry): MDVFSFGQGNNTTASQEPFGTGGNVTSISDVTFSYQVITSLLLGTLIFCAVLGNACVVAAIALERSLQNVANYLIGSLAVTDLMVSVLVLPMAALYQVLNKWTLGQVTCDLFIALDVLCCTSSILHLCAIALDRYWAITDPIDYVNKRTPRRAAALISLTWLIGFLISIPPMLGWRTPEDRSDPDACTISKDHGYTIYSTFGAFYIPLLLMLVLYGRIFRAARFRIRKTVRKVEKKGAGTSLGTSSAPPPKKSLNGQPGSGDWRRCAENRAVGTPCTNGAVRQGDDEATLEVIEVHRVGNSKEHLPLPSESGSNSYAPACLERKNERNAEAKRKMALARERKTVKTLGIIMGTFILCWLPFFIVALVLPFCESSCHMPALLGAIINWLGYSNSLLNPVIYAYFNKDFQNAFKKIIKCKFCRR
# assayExplanation: Inhibition of [^125 I]-p-MPP binding to rat hippocampal homogenates
# experimentalContext: ligand [^125 I]-p-MPP, rat hippocampal homogenates; read-out: Ki
valueKind: Ki (nM)
Provide the reading as a plain figure in nM.

# compound, subjectOfTest, Ki / nM
measured = [
    ("COc1cccc(OC)c1OCCNCC1COc2ccccc2O1 (stereo not shown)", "5-HT1A receptor (rat hippocampal homogenates) (Rattus norvegicus, UniProt P19327)", 5),
    ("O=C(CCCN1CCC2(CC1)C(=O)NCN2c1ccccc1)c1ccc(F)cc1", "5-HT1A receptor (rat hippocampal homogenates) (Rattus norvegicus, UniProt P19327)", 12.2),
    ("COc1ccccc1N1CCN(CCN(C(=O)c2cccc(I)c2)c2ccccn2)CC1", "5-HT1A receptor (rat hippocampal homogenates) (Rattus norvegicus, UniProt P19327)", 2.46),
]

Turning now to a further compound:
Input COc1ccccc1N1CCN(CCN(C(=O)c2ccc(I)cc2)c2ccccn2)CC1 , output reported Ki.
0.96

---

# assayExplanation: Regional brain distribution in rats after iv injection
# Type: in vivo, Male Sprague-Dawley rats
# experimentalContext: rat, cerebellum; 60 min, iv, rats (Table III); read-out: Regional distribution, cerebellum
valueKind: tissue uptake at 1 h (%ID/g)
Field: numeric (%ID/g). Do not append units.

Please look at this compound and report its tissue uptake at 1 h: COc1ccccc1N1CCN(CCN(C(=O)c2ccc([123I])cc2)c2ccccn2)CC1 [[^123 I] 1a]
0.04
